Entry source: PubChem BioAssay (NCI)

test system: NCI-H23 lung; assay: NCI-60 one-dose screen, 48 h; conditions: 10 µM unless noted
About 83,000 compounds went through this panel and 20% of them were active in at least one assay; those are over-represented in the sample as a whole. Active and inactive are the calls of the source. The calls were made as follows: active = growth percent below 10; inactive = the rest.
Outcome (select one): Yes = active, No = inactive

Cc1cc(Nc2cc(N3CCN(C)CC3)nc(/C=C/c3ccccc3)n2)n[nH]1 : No

[ask] Give the logged outcome of this assay for the following compound: Cc1nn(-c2nc3ccccc3[nH]2)c2c1C(c1ccc(O)cc1)CC(=O)N2 (stereo not drawn)
[reply] No

* * *

system: NCI-H460 lung; assay: NCI-60 one-dose screen, 48 h; conditions: 10 µM unless noted
Compounds without any hit were thinned out: in the full panel of roughly 83,000, 20% have a hit. Calls of active or inactive are those of the source. How the source made its calls: active means growth percent below 10; inactive means the rest.
Mark one answer only. Choices: yes (1) = active, no (0) = inactive

Solved cases (5 shown):
CC(C)CC(=O)Nc1n[nH]c2c1CN(C(=O)C1CCN(C)CC1)C2(C)C : yes (1)
CC(=O)O[C@]1(C)C[C@H](O)[C@]2(O)C=CO[C@H](O[C@@H]3O[C@H](CO)[C@@H](O)[C@H](O)[C@H]3O)[C@@H]21 : no (0)
CN1CCN(CCOc2cc(OC3CCOCC3)c3c(Nc4c(Cl)ccc5c4OCO5)ncnc3c2)CC1 : no (0)
COC(=O)[C@H](C)NC(=O)[C@@H](OC)[C@@H]1Cc2cc3cc(OC4CC(OC5CC(O)C(O)C(C)O5)C(O)C(C)O4)c(C)c(O)c3c(O)c2C(=O)[C@H]1OC1CC(OC2CC(OC3CC(C)(O)C(O)C(C)O3)C(O)C(C)O2)C(O)C(C)O1 (some centres undefined) : yes (1)
Cc1cc(Oc2ccccc2)ccc1Nc1ncnc2ccc(-c3cnc(Cl)c(NS(C)(=O)=O)c3)cc12 : no (0)

[ask] What call does the record list for "O=C1NC(=O)[C@@H](c2cn3c4c(cccc24)CCC3)[C@@H]1c1c[nH]c2ccccc12" ?
[reply] yes (1)

[ask] And for O=C1C=CC2(NN=C(c3ccccc3)N2c2cccc(Cl)c2)C(Cl)=C1 (centres undefined) ?
[reply] no (0)

[ask] And what about the compound "N#CCNC(=O)c1ccc(-c2ccnc(Nc3ccc(N4CCOCC4)cc3)n2)cc1" ?
[reply] yes (1)

[ask] Please answer likewise for "COc1ccc(-c2ccc3ncc4c(c3c2)n(-c2ccc(N3CCNCC3)c(C(F)(F)F)c2)c(=O)n4C)cn1"
[reply] yes (1)

[ask] Entry to check: "CCN(CCN(C)C)C(=O)CNCc1cc(C(N)=O)ccn1"
[reply] no (0)

[ask] Lookup "C/C(=C(/c1ccc(Cl)cc1)c1ccc(OCCN2CCCCCC2)cc1)c1ccccc1"
[reply] no (0)

[ask] Queued: "CCCCN1CCCC[C@@H]1C(=O)N[C@H](C(=O)N(C)[C@H](CCc1nc(C(=O)N[C@@H](Cc2ccccc2)C[C@H](C)C(=O)OC)cs1)C(C)C)C(C)C"
[reply] no (0)

[ask] Note, next up: O=C1C=CC2(NN=C(c3ccccc3)N2c2cccc(Cl)c2)c2cccc(O)c21 (centres undefined)
[reply] no (0)

[ask] Also "CCn1cc(-c2ccnc3[nH]c(-c4cccc(CN(C)C)c4)cc23)c(-c2ccc(NC(=O)N(C)C)cc2)n1" , if possible.
[reply] yes (1)

[ask] What about "C#Cc1cccc(Nc2ncnc3cc(OC)c(OCCCCCCC(=O)NO)cc23)c1" ?
[reply] yes (1)

[ask] For "Cc1cc(NCC(=O)Nc2ccc(-c3nc4ccccc4s3)cc2)no1" then?
[reply] no (0)

[ask] What do we get for "Cc1cc(C(=O)NOCCO)c(Nc2ccc(I)cc2F)n(C)c1=O" ?
[reply] no (0)

[ask] Proceed to "O=C(NCCO)Nc1ccc(-c2nc(N3CCOCC3)c3cccn3n2)cc1"
[reply] yes (1)

[ask] Another: "COc1cc(NCCCN)c2ncccc2c1"
[reply] no (0)
